- experiment_summary: NCI Yeast Anticancer Drug Screen. Data for the rad50 strain (AID 155);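 also: 0% = growth of vehicle-only cultures of the same strain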
- recorded_conditions: S. cerevisiae rad50 strain growth inhibition; at 50.0 µM; stronger effect = higher value
The panel holds about 79,000 compounds, 15% with a hit somewhere; the sample as a whole holds those more often.
Give measured growth inhibition for each item. Keep answers brief.
Give bare numbers, in %.

Previously resolved entries follow.
Nc1nnc(CCC(=O)Nc2cccc(C(F)(F)F)c2)n1N ... 4.85
C/C(=N\NC(=S)N1CCC(C2CCN(C(=S)N/N=C(\C)c3ccccn3)CC2)CC1)c1ccccn1 ... 32.4

Record growth inhibition for all entries; do not skip any.
1. O=C1CCC(=O)N1Cl
2. C[N+](C)(C)CCOC(=O)C(c1ccccc1)C1(O)CCCC1 (configuration not stated)
3. COc1ccc(Cc2c[nH]c3cc(OC)c(OC)cc23)cc1OC
4. CC(C)CC(O)CC(C)C

Output:
1: 1.05; 2: 33.6; 3: -22.8; 4: 1.25

Lab note: measured growth inhibition of `O=C(Nc1ccccc1)c1cccc(F)c1` was -2.9

----------
- experiment_summary: NCI Yeast Anticancer Drug Screen. Data for the mec2-1 strain (AID 157)
- recorded_conditions: S. cerevisiae mec2-1 strain, at 50.0 µM, stronger effect = higher value
- Experimental: Growth inhibition of yeast strains with defined genetic alterations is measured as a screen for potential anti-cancer activity. Selected strains with alterations in DNA damage repair or cell cycle control were exposed to compounds and growth inhibition was measured relative to vehicle treated controls. The strain used in this assay is mec2-1
The panel holds about 79,000 compounds, 15% with a hit somewhere; the sample as a whole holds those more often.
quantity_name: growth inhibition (%)
Answers are plain numbers, in %.

Previously resolved entries follow.
CC(=O)SC1CC2CCC1C2 (stereo not given) ... -18.2
NC(=O)N1CCCC1=O ... -18.9

Record growth inhibition for all entries; do not skip any.
1. C/C(=N/NC(N)=O)c1ccc([N+](=O)[O-])o1
2. CC1(C)C(=O)CCC2(C)C(OC(=O)c3ccc(C(=O)O)cc3)CCCC12 (stereo not given)
3. CN1CC(CN2CCCCCC2)C(O)C(c2ccccc2)C1 (stereo not given)
4. COc1cc(/C=C/C(=O)Oc2ccccc2)ccc1C(=O)O/C=C/c1ccccc1
5. CCc1nc2cc(F)ccc2[nH]c1=O

Output:
9.9
37.5
-7.1
-4.7
24.2

Record growth inhibition for all entries; do not skip any.
1. Cc1cc(N(CCC#N)CCC#N)ccc1/C(N=Nc1cccc(Cl)c1)=N/NC(=O)c1cc(Cl)ccc1O
2. C=C1CC(C)(Cn2cnc3c(N)ncnc32)OC1=O (stereo not given)

Output:
[4.9, 10.6]

----------
Give measured growth inhibition for each item. Keep answers brief.
- experiment_summary: NCI Yeast Anticancer Drug Screen. Data for the mec2-1 strain (AID 157)
- recorded_conditions: S. cerevisiae mec2-1 strain, at 50.0 µM, stronger effect = higher value
This is part of a sample that, as a whole, favours compounds with a hit. Of some 79,000 tested, about 15% had one in any assay.
Numbers only, in %.

COc1ccc2c(c1)SC1=NNC(=O)CN12 ... -27.6
O=C(CCCN1CCC(Nc2ccccc2)(c2nnnn2C2CCCCC2)CC1)c1ccc(F)cc1 ... -16.2
Clc1nc(N2CCOCC2)nc(N2CCOCC2)n1 ... -21.1
CC(=O)Nc1nc(C)c(CC/C=C/c2ccc([N+](=O)[O-])cc2)c(=O)[nH]1 ... 32.6
CCOC(=O)N1C(c2ccccc2)N(c2ccccc2)C(c2ccccc2)N1C(=O)OCC (stereo unspecified) ... 4.65

We now examine a further molecule.
Lab note: measured growth inhibition of `CN(C)c1ccc(C(=N)c2ccc(N(C)C)cc2)cc1` was 4.9
